Some compounds, each annotated with its measured Percent Effect.
tested on: Wolbachia pipientis; assay: Anti-Wolbachia Cell-Based Screen; type: functional; design: scale not given: in the data most compounds retested in dose-response had high values; conditions: 5 µM
Out of some 48,000 compounds screened, about 13,000 (27%) showed an effect of 50% or more. Some of the results follow.
Give the value, in units of %, as a plain number.

These solved cases illustrate the format of a correct answer.
# COMPOUND, SUBJECT OF TEST, RECORDED VALUE
rows = [
    ("COCCNC(=O)c1ccnn1-c1ccc2ccccn12", "Wolbachia pipientis", -19.09),
    ("COc1ncccc1NC(=O)N1CCC(CNC(C)=O)CC1", "Wolbachia pipientis", 2.478),
    ("COc1ncccc1NC(=O)N(Cc1ccc(C)o1)C1CC1", "Wolbachia pipientis", -9.414),
    ("COC(=O)Cn1c(=O)nc2n1C(=O)N(c1ccccc1)C2", "Wolbachia pipientis", -2.891),
    ("CN(C)C(CNC(=O)N(Cc1ccco1)C1CC1)c1cccs1 (stereo not drawn)", "Wolbachia pipientis", 11.82),
    ("CN(C)S(=O)(=O)N1C[C@H]2CCC[C@@]2(COCc2ccccn2)C1.O=C(O)C(F)(F)F", "Wolbachia pipientis", 5.963),
    ("CC(=O)c1cn(CC(=O)N2CCC(O)(CO)CC2)c2ccccc12", "Wolbachia pipientis", -13.61),
    ("CCN(C)C(=O)c1ccnn1-c1ccc2ccccn12", "Wolbachia pipientis", -2.565),
]

For the compound CCc1nnc2n1CCN(CC(O)CN1CCC(C)CC1)C2 (stereo not drawn) , give its reported Percent Effect.
-4.838

For the compound O=C(c1ccnn1-c1ccc2ccccn12)N1CCOCC1 , give its reported Percent Effect.
95.26

For the compound O=C(NCCN1CCOCC1)c1ccnn1-c1ccc2ccccn12.O=C(O)C(F)(F)F , give its reported Percent Effect.
-0.1496

For the compound CCCC(=O)N1CCC(O)(Cn2c(CC)nc3ccccc3c2=O)CC1.Cl , give its reported Percent Effect.
-3.591

For the compound CCc1nc2ccccc2c(=O)n1CC1(O)CCN(C(=O)C2CC2)CC1.Cl , give its reported Percent Effect.
111.9

* * *

tested on: Wolbachia pipientis; test: Anti-Wolbachia Cell-Based Screen; format: functional; set-up: scale not given: in the data most compounds retested in dose-response had high values; details: 5 µM
In all, about 48,000 compounds went through this assay and about 13,000 (27%) showed an effect of 50% or more. The list shows a part of the results.
RESULT TYPE: Percent Effect (%)
Give the value, in units of %, as a plain number.

# COMPOUND, SUBJECT OF TEST, RECORDED VALUE
records = [
    ("CCc1nc(NS(=O)(=O)c2cc(C)cc(F)c2)no1", "Wolbachia pipientis", -9.734),
    ("COCC1CC2(CCN(Cc3cnn(C)c3)CC2)CN1c1ncccn1.O=C(O)C(F)(F)F.O=C(O)C(F)(F)F (stereo unspecified)", "Wolbachia pipientis", -8.289),
    ("Cc1nc(C)n(CC2CCCN(CCC(=O)NC3CCCCC3)C2)n1 (stereo unspecified)", "Wolbachia pipientis", 153.2),
    ("Cc1nn(C(C)C)c(C)c1S(=O)(=O)Nc1cccc(F)c1", "Wolbachia pipientis", 2.276),
    ("CN1CCc2ccc(NCc3cccs3)cc2C1=O", "Wolbachia pipientis", -3.883),
]

For the compound Cc1cc(S(C)(=O)=O)c(C)c(S(=O)(=O)NCC2CCC2)c1 , give its reported Percent Effect.
-2.164

For the compound c1csc(CN2CC[C@H]3O[C@@H](COCC4CC4)CC[C@H]32)c1 , give its reported Percent Effect.
-24.01

For the compound O=C(O)c1ccccc1-c1c(-c2ccccc2)ncn1C[C@H]1CCCN1 , give its reported Percent Effect.
-12.22

For the compound Cc1cc(Cl)ccc1NCc1cnn(C2CCS(=O)(=O)C2)c1 (stereo unspecified) , give its reported Percent Effect.
23.97

For the compound Cc1cccc(N2CCN(C(=O)C3CC4(CCNCC4)CN3)CC2)n1 (stereo unspecified) , give its reported Percent Effect.
-9.883

For the compound CN(C)c1ccccc1C(=O)N1C[C@@H](CN2CCOCC2)[C@@H](CO)C1 , give its reported Percent Effect.
9.943

For the compound Cc1ccc(CN(Cc2ccccn2)C2CC(C)(C)NC(C)(C)C2)s1.O=C(O)CC(O)(CC(=O)O)C(=O)O , give its reported Percent Effect.
-1.083

For the compound Cc1ncc(CN(Cc2ccccn2)Cc2ccccc2Cl)n1C.O=C(O)CC(O)(CC(=O)O)C(=O)O , give its reported Percent Effect.
124.9

For the compound COC1CCCN(Cc2nc(Cc3ccccc3F)no2)C1 (stereo unspecified) , give its reported Percent Effect.
-1.199

For the compound Cn1cc(CN2CCC(F)(F)C3(CCN(c4cnccn4)C3)C2)cn1.O=C(O)C(F)(F)F.O=C(O)C(F)(F)F (stereo unspecified) , give its reported Percent Effect.
-4.979

For the compound O=C(O)C(F)(F)F.c1coc(CN2CC[C@H]3O[C@@H](COCC4CC4)CC[C@H]32)c1 , give its reported Percent Effect.
103.1

For the compound Cn1cc(CN2CCC[C@]3(C(=O)O)CN(c4ncccn4)C[C@@H]3C2)cn1.O=C(O)C(F)(F)F , give its reported Percent Effect.
8.279

For the compound O=C(CN1CCCc2c(F)cc(Br)cc21)N1CCN(C(=O)C2CC2)CC1 , give its reported Percent Effect.
3.977

For the compound CN1CCOC[C@H]1c1nc(-c2ccncc2)c[nH]1 , give its reported Percent Effect.
-4.576

For the compound CN1C[C@@H](COCC2CC2)[C@H]2CCN(Cc3ccco3)CC[C@H]2C1=O.O=C(O)C(F)(F)F , give its reported Percent Effect.
-15.86

For the compound CC1(C)CC1(C(=O)N1CC(c2cccnc2)C1)c1ccccc1F (stereo unspecified) , give its reported Percent Effect.
-22.23

* * *

Some compounds, each annotated with its measured Percent Effect.
tested on: Wolbachia pipientis; experiment: Anti-Wolbachia Cell-Based Screen; type: functional; set-up: scale not given: in the data most compounds retested in dose-response had high values; details: 5 µM
Out of some 48,000 compounds screened, about 13,000 (27%) showed an effect of 50% or more. The list shows a part of the results.
Give the value, in units of %, as a plain number.

For the compound CC(NC(=O)NCCCN(C)S(C)(=O)=O)c1cccc(Cl)c1 (centres undefined) , give its reported Percent Effect.
-5.228

For the compound CN(CCOCC(F)(F)F)CC1CCN(CCO)CC1 , give its reported Percent Effect.
-6.866

For the compound OC1CCCOC12CCN(CCCOc1ccccc1F)CC2 (centres undefined) , give its reported Percent Effect.
114.2

For the compound Cc1cccc(CS(=O)(=O)CC(=O)NCCCOC(C)C)c1 , give its reported Percent Effect.
-2.072

For the compound NC(=O)NC(CC(=O)NCCc1cccc(F)c1)c1ccccc1 (centres undefined) , give its reported Percent Effect.
-0.165

For the compound Cc1ccc(CNC(=O)c2cc(CN3CCC(O)CC3)on2)s1 , give its reported Percent Effect.
-1.351

For the compound CCn1cc(CN2CCC(c3ccncc3)CC2)cc1C#N , give its reported Percent Effect.
18.43

For the compound CC(C)c1ccc(CS(=O)(=O)CC(=O)NCc2ccccc2F)cc1 , give its reported Percent Effect.
-59.22

For the compound Cc1cccc(-n2nc(CC(C)C)nc2CCC(=O)N(C)C)c1 , give its reported Percent Effect.
1.155

For the compound O=C(NCC1CCCCO1)c1cc(Cn2cnc3ccccc32)[nH]n1 (centres undefined) , give its reported Percent Effect.
-5.339

For the compound O[C@H]1CCN(CCCOc2ccccc2F)C[C@@]12CCCO2 , give its reported Percent Effect.
90.29

For the compound Cc1ccc(CS(=O)(=O)CC(=O)NCc2ccccc2F)cc1 , give its reported Percent Effect.
-26.12

For the compound CC(C)OCCCNC(=O)CS(=O)(=O)Cc1ccc(C(C)C)cc1 , give its reported Percent Effect.
60.49

For the compound Cc1ccc(OCC(=O)N(C)Cc2cccc(F)c2)cn1 , give its reported Percent Effect.
7.779

For the compound CC(=O)N(Cc1ncc(C(C)C)o1)C1CCN(Cc2ncc[nH]2)C1 (centres undefined) , give its reported Percent Effect.
11.04

For the compound CNC(=O)C(NC(C)=O)c1ccc(F)c(F)c1 (centres undefined) , give its reported Percent Effect.
-14.34

For the compound CC(C)OCc1ncn2c1CN(Cc1nccs1)CCC2.O=C(O)C(F)(F)F , give its reported Percent Effect.
19.89

For the compound CC(C)OCCCNC(=O)CS(=O)(=O)Cc1ccc(Cl)cc1 , give its reported Percent Effect.
111.2

For the compound CC(C)OCCCNC(=O)CS(=O)(=O)Cc1ccc(Cl)c(Cl)c1 , give its reported Percent Effect.
-2.776

For the compound CC(C)OCCCNC(=O)CS(=O)(=O)Cc1cccc(Cl)c1 , give its reported Percent Effect.
109.4

For the compound CC(=O)N(Cc1ncc(C(C)C)o1)C1CCN(Cc2nccn2C)C1 (centres undefined) , give its reported Percent Effect.
-4.268

For the compound Cc1nc2ccccc2n1Cc1cc(C(=O)N(C)C2CCOC2)n[nH]1 (centres undefined) , give its reported Percent Effect.
98.82

For the compound CC(=O)Nc1ccc2nn(C(C)C)cc2c1 , give its reported Percent Effect.
3.305

For the compound CCc1ncc2c(n1)CN(CC1CCCCO1)CC2 (centres undefined) , give its reported Percent Effect.
-28.59
